Hi there, I'd appreciate the recorded Kb, method III for every entry that follows.
system: CT-DNA; assay: DNA binding by cyclic voltammetry
Report the value in M⁻¹ with no unit label.

input: Provide value of Kb, method III for this record tested with CT-DNA: [Ni+2].[O-]c1ccccc1N=Cc1ccc(N2CCOCC2)cc1.[O-]c1ccccc1N=Cc1ccc(N2CCOCC2)cc1.c1ccc(-c2ccccn2)nc1
output: 16031

input: Provide value of Kb, method III for this record tested with CT-DNA: Oc1ccccc1N=Cc1ccc(N2CCOCC2)cc1
output: 4837

input: Provide value of Kb, method III for this record tested with CT-DNA: [Mn+2].[O-]c1ccccc1N=Cc1ccc(N2CCOCC2)cc1.[O-]c1ccccc1N=Cc1ccc(N2CCOCC2)cc1.c1ccc(-c2ccccn2)nc1
output: 10713

input: Provide value of Kb, method III for this record tested with CT-DNA: [Co+2].[O-]c1ccccc1N=Cc1ccc(N2CCOCC2)cc1.[O-]c1ccccc1N=Cc1ccc(N2CCOCC2)cc1.c1ccc(-c2ccccn2)nc1
output: 15999
